- Measured Target: BCL6 (Homo sapiens (Human), UniProt P41182)
- Test Protocol: Immunofluorescence high content imaging of BCL6 degradation in T47D cells
- Assay type: cell-based
- Test Settings: class symbols A-D, read-out: EC50 (nM)*
Entries and their DC50 values follow.

{"columns": ["Compound", "DC50"],
 "data": [
  ["CC(=O)COc1cc2cc(Nc3nc(N4CCC(CCN5CCN(c6ccc7c(c6)C(=O)N(C6CCC(=O)NC6=O)C7=O)CC5)CC4)ncc3Cl)ccc2n(C)c1=O (stereo not drawn) [compound 162]", "10 to 50 nM"],
  ["CC(=O)COc1cc2cc(Nc3nc(N4CCC(OCCOCCOCCOCCOCCOc5ccc6c(c5)CN(C5CCC(=O)NC5=O)C6=O)CC4)ncc3Cl)ccc2n(C)c1=O (stereo not drawn) [compound 98]", "10 to 50 nM"]
]}

# input for lookup
Provide the documented DC50 with BCL6 (Homo sapiens (Human), UniProt P41182) as the system for CNC(=O)COc1cc2cc(Nc3nc(N4CCC(OCCOCCOCCOCCNc5cccc6c5C(=O)N(C5CCC(=O)NC5=O)C6=O)CC4)ncc3Cl)ccc2n(C)c1=O (stereo not drawn) [compound 66] > 100 nM

----------
- Measured Target: BCL6 (Homo sapiens (Human))
- Test Protocol: Immunofluorescence high content imaging of BCL6 degradation in T47D cells
- Type: cell-based
- Test Settings: T47D cells
Entries and their Dmax values follow.

Here's what some known entries look like.
{"columns": ["Molecule", "Dmax"],
 "data": [
  ["CNC(=O)COc1cc2cc(Nc3nc(N4CCN(CC5CCN(c6cc(OC)c(C(=O)NC7CCC(=O)NC7=O)c(OC)c6)CC5)CC4)ncc3Cl)ccc2n(C)c1=O (centres unmarked) [compound 368]", "< 50%"],
  ["CNC(=O)COc1cc2cc(Nc3nc(N4CCN(CC5CCN(C(=O)c6ccc(OC)c(N7CCC(=O)NC7=O)c6)CC5)CC4)ncc3Cl)ccc2n(C(C)C)c1=O [compound 401]", "< 50%"],
  ["CNC(=O)COc1cc2cc(Nc3nc(N4CCN(C(C)(C)C5CCN(c6ccc(C(=O)NC7CCC(=O)NC7=O)c(OC)c6)CC5)CC4)ncc3Cl)ccc2n(C)c1=O (centres unmarked) [compound 315]", "50 to 70%"],
  ["CNC(=O)COc1cc2cc(Nc3nc(N4CCC(OC5CC6(C5)CN(c5ccc(C(=O)NC7CCC(=O)NC7=O)c(OC)c5)C6)CC4)ncc3Cl)ccc2n(C(C)C)c1=O (centres unmarked) [compound 429]", "≥ 70%"]
]}

Could you share which Dmax value was measured for CNC(=O)COc1cc2cc(Nc3nc(N4CCN(CC5CCCN5c5cccc6c5C(=O)N(C5CCC(=O)NC5=O)C6=O)CC4)ncc3Cl)ccc2n(C(C)C)c1=O (centres unmarked) [compound 398] ? < 50%

----------
- Measured Target: BCL6 (Homo sapiens (Human))
- Test Protocol: Immunofluorescence high content imaging of BCL6 degradation in T47D cells
- Type: cell-based
- Test Settings: T47D
Entries and their Dmax values follow.

Here's what some known entries look like.
{"columns": ["Molecule", "Measured Target", "Dmax"],
 "data": [
  ["CNC(=O)COc1cc2cc(Nc3nc(N4CCN(C(C)(C)C5CCN(c6ccc7c(c6)CN(C6CCC(=O)NC6=O)C7=O)CC5)CC4)ncc3Cl)ccc2n(C)c1=O (centres unmarked)", "BCL6 (Homo sapiens (Human))", "≥ 70%"],
  ["CNC(=O)COc1cc2cc(Nc3nc(N4CCN(CC5CC6(C5)CN(c5cccc7c5C(=O)N(C5CCC(=O)NC5=O)C7=O)C6)CC4)ncc3Cl)ccc2n(C(C)C)c1=O (centres unmarked)", "BCL6 (Homo sapiens (Human))", "50 to 70%"]
]}

Could you share which Dmax value was measured for CNC(=O)COc1cc2cc(Nc3nc(N4CCN(C[C@H]5C[C@H](N6CCN(c7cccc8c7C(=O)N(C7CCC(=O)NC7=O)C8=O)CC6)C5)CC4)ncc3Cl)ccc2n(C(C)C)c1=O (some centres unmarked) ? < 50%

Could you share which Dmax value was measured for CNC(=O)COc1cc2cc(Nc3nc(N4CCC(OC5CC6(CCN(c7cccc(C(=O)NC8CCC(=O)NC8=O)c7OC)CC6)C5)CC4)ncc3Cl)ccc2n(C(C)C)c1=O (centres unmarked) ? 50 to 70%

Could you share which Dmax value was measured for CNC(=O)COc1cc2cc(Nc3nc(N4CCC(O[C@@H]5C[C@H](Oc6ccc7c(c6)C(=O)N(C6CCC(=O)NC6=O)C7=O)CN(C)C5)CC4)ncc3Cl)ccc2n(C(C)C)c1=O (some centres unmarked) ? 50 to 70%

Could you share which Dmax value was measured for CNC(=O)COc1cc2cc(Nc3nc(N4CCC(CN5CCC6(CCN(c7ccc8c(c7)C(=O)N(C7CCC(=O)NC7=O)C8=O)C6)C5)CC4)ncc3Cl)ccc2n(C(C)C)c1=O (centres unmarked) ? ≥ 70%

Could you share which Dmax value was measured for CNC(=O)COc1cc2cc(Nc3nc(N4CCN(C(C)(C)C5CCN(c6c(OC)ccc(C(=O)NC7CCC(=O)NC7=O)c6F)CC5)CC4)ncc3Cl)ccc2n(C)c1=O (centres unmarked) ? ≥ 70%

Could you share which Dmax value was measured for Cc1nnc(-c2cc3cc(Nc4nc(N5CCN(C(C)(C)C6CCN(c7ccc8c(c7)C(=O)N(C7CCC(=O)NC7=O)C8=O)CC6)CC5)ncc4Cl)ccc3n(C)c2=O)o1 (centres unmarked) ? < 50%

Could you share which Dmax value was measured for CNC(=O)COc1cc2cc(Nc3nc(N4CCC(CN5CC6(CCN(c7ccc8c(c7)C(=O)N(C7CCC(=O)NC7=O)C8=O)C6)C5)CC4)ncc3Cl)ccc2n(C(C)C)c1=O (centres unmarked) ? 50 to 70%

Could you share which Dmax value was measured for CNC(=O)COc1cc2cc(Nc3nc(N4CCN(C(C)(C)C5CCN(c6ccc7c(c6)C(=O)N(C6CCC(=O)NC6=O)C7=O)CC5)CC4)ncc3Cl)ccc2n(C)c1=O (centres unmarked) ? ≥ 70%

Could you share which Dmax value was measured for CNC(=O)COc1cc2cc(Nc3nc(N4CCN(CC5CCN(c6cccc7c6C(=O)N(C6CCC(=O)NC6=O)C7=O)CC5)CC4)ncc3Cl)ccc2n(C(C)C)c1=O (centres unmarked) ? ≥ 70%

----------
- Measured Target: UniProt:P41182
- Test Protocol: BCL6 TR-FRET assay (BCL6-Avitag-Biotin / BCoR-Cy5 peptide)
- Format: binding
- Test Settings: class symbols A-D; read-out: IC50 (nM)***
Measurement Type: IC50

Here's what some known entries look like.
{"columns": ["Molecule", "Measurement Type", "Result"],
 "data": [
  ["CNC(=O)COc1cc2cc(Nc3nc(N4CCC(OCCOCCOCCOCCOCCOc5ccc6c(c5)CN(C5CCC(=O)NC5=O)C6=O)CC4)ncc3Cl)ccc2n(C)c1=O (centres unmarked)", "IC50", "10 to 50 nM"],
  ["CNC(=O)COc1cc2cc(Nc3nc(N4CCCC(COc5ccc(C6CCN(CCC(O)c7ccc8c(c7)CN(C7CCC(=O)NC7=O)C8=O)CC6)cc5)C4)ncc3Cl)ccc2n(C)c1=O (centres unmarked)", "IC50", "< 10 nM"],
  ["Cn1c(=O)cc(NC(C)(C)c2ncccn2)c2cc(Nc3nc(N4CCC(CN5CCN(c6ccc7c(c6)C(=O)N(C6CCC(=O)NC6=O)C7=O)CC5)CC4)ncc3Cl)ccc21 (centres unmarked)", "IC50", "≥ 100 nM"],
  ["CC(=O)COc1cc2cc(Nc3nc(N4CCC(CCOC5CN(c6ccc7c(c6)C(=O)N(C6CCC(=O)NC6=O)C7=O)C5)CC4)ncc3Cl)ccc2n(C)c1=O (centres unmarked)", "IC50", "10 to 50 nM"]
]}

Provide the documented IC50 with UniProt:P41182 as the system for CC(=O)COc1cc2cc(Nc3nc(N4CCC(CN5CCN(c6ccc7c(c6)CN(C6CCC(=O)NC6=O)C7=O)CC5)CC4)ncc3Cl)ccc2n(C)c1=O (centres unmarked) < 10 nM

Provide the documented IC50 with UniProt:P41182 as the system for CC(=O)COc1cc2cc(Nc3nc(C#CC4CCN(c5ccc6c(c5)C(=O)N(C5CCC(=O)NC5=O)C6=O)CC4)ncc3Cl)ccc2n(C)c1=O (centres unmarked) 10 to 50 nM

Provide the documented IC50 with UniProt:P41182 as the system for CC(=O)COc1cc2cc(Nc3nc(N4CCC(OC5CCN(c6ccc7c(c6)C(=O)N(C6CCC(=O)NC6=O)C7=O)CC5)CC4)ncc3Cl)ccc2n(C)c1=O (centres unmarked) 10 to 50 nM

Provide the documented IC50 with UniProt:P41182 as the system for CC(=O)COc1cc2cc(Nc3nc(N4CCC(CN5CCC(Oc6ccc7c(c6)C(=O)N(C6CCC(=O)NC6=O)C7=O)CC5)C4)ncc3Cl)ccc2n(C)c1=O (centres unmarked) 50 to 100 nM

----------
- Measured Target: BCL6 (Homo sapiens (Human), UniProt P41182)
- Test Protocol: Immunofluorescence high content imaging of BCL6 degradation in T47D cells
- Assay type: cell-based
Entries and their IC50 values follow.

Here's what some known entries look like.
{"columns": ["Compound", "Result"],
 "data": [
  ["CNC(=O)COc1cc2cc(Nc3nc(N4CCN(CC5CCN(c6ccc7c(c6)C(=O)N(C6CCC(=O)NC6=O)C7=O)CC5)C(=O)C4)ncc3Cl)ccc2n(C)c1=O (centres unmarked)", "≥ 100 nM"],
  ["CNC(=O)COc1cc2cc(Nc3nc(N4CCCN(CC5CCN(c6ccc7c(c6)C(=O)N(C6CCC(=O)NC6=O)C7=O)CC5)CC4)ncc3Cl)ccc2n(C)c1=O (centres unmarked)", "10 to 50 nM"],
  ["CNC(=O)COc1cc2cc(Nc3nc(N4CCN(CC5CCN(c6ccc(C(=O)NC7CCC(=O)NC7=O)cc6)CC5)CC4)ncc3Cl)ccc2n(C)c1=O (centres unmarked)", "≥ 100 nM"]
]}

Could you share which IC50 value was measured for CN1CC[C@@H](Oc2cc3cc(Nc4nc(N5CCC(CN6CCN(c7ccc8c(c7)C(=O)N(C7CCC(=O)NC7=O)C8=O)CC6)CC5)ncc4Cl)ccc3n(C)c2=O)C1=O (some centres unmarked) ? ≥ 100 nM

Could you share which IC50 value was measured for CNC(=O)COc1cc2cc(Nc3nc(N4CCC(CN5CC6(C5)CN(c5cccc7c5C(=O)N(C5CCC(=O)NC5=O)C7=O)C6)CC4)ncc3Cl)ccc2n(C)c1=O (centres unmarked) ? < 10 nM
